tgt: Cytochrome P450 2C9 (Homo sapiens) (UniProt P11712)
Sequence (P11712 whole entry, looked up): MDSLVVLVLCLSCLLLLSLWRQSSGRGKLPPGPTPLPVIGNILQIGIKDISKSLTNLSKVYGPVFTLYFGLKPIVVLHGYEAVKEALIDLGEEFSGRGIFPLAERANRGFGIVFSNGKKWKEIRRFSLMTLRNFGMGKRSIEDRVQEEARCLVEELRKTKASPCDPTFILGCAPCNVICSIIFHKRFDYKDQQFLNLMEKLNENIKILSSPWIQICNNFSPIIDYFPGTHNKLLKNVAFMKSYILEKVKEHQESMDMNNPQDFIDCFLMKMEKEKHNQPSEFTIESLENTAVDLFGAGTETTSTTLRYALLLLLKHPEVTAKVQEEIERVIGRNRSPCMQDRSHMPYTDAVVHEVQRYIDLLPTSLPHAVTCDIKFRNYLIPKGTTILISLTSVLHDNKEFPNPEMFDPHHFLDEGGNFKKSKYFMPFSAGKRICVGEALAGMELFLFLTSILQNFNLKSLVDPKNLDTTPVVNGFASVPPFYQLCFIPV
run_description: Cytochrome panel assay with activity outcomes
condition_details: recombinant CYP, pro-luciferin dealkylation, luminescence, p450-cyp2c9; series mostly up to 57.1 µM
Among all 16,000 compounds or so, about 4,000 (25%) were called active. Not shown: some 26% with an inconclusive outcome. Calls come from the whole dose curve; as a rule, active = well fitted curve in the direction sought with a large enough effect; inconclusive = small, poorly fitted or top-dose-only effect, or effect the other way; inactive = no such curve, though single readings can be large or run the other way. These entries were drawn from the full list.
Select the correct class. Options are active, inactive and nothing else.

Answered cases to consult:
CC(=O)Nc1nnc(CCN2CCCCC2)s1	inactive
COc1ncc2nc(-c3cn(C)c4ccccc34)c(=O)n(CCC#N)c2n1	inactive
COC(=O)[C@@]1(Cc2ccc(F)cc2)[C@H]2c3cc(C(=O)N(C)C)n(Cc4ccc(Cl)c(C(F)(F)F)c4)c3C[C@H]2CN1C(=O)c1ccccc1	active
Cc1ccc(NC(=O)NNC(=O)Cn2nc(-c3ccccc3)c(-c3ccccc3)c(C#N)c2=O)cc1	active
Cc1ccc(OC(=O)c2ccc(N3CCOCC3)c([N+](=O)[O-])c2)cc1	active

Req: Status in this test for COC(=O)[C@@]1(Cc2ccc(OC)cc2)[C@H]2c3cc(C(=O)N4CCCC4)n(Cc4ccc(Cl)c(C(F)(F)F)c4)c3C[C@H]2CN1C(=O)c1ccccc1 ?
Resp: active

Req: Status in this test for COc1ccc2c(c1)C(c1ccc([N+](=O)[O-])cc1)=NNC(c1ccco1)=N2 ?
Resp: active

Req: Status in this test for COC(=O)[C@@]1(Cc2ccc(F)cc2)[C@H]2c3cc(C(=O)N(C)C)n(CCCNc4ccc(C(F)(F)F)cc4Cl)c3C[C@H]2CN1C(=O)c1ccccc1 ?
Resp: active

Req: Status in this test for COc1ccccc1CCn1c(=O)c(-c2cn(C)c3ccccc23)nc2cncnc21 ?
Resp: active

Req: Status in this test for CO/N=C/c1ccc(N2CCN(C(=O)c3ccc(Cl)cc3Cl)CC2)c([N+](=O)[O-])c1 ?
Resp: active

Provenance of the data: PubChem BioAssay AID1851
